- System: T47D
- measurement-protocol: Anticancer activity against human T47D cells after 48 hrs by SRB assay
- Type: functional
Overview of reported GI50 across a group of compounds:

# compound-string, GI50 / µM
measured = [
    ("O=C(NCCNc1nccc(-c2c(-c3cccc(O)c3)nc3sccn23)n1)c1ccccc1", 11),
    ("O=C(NCCNc1nccc(-c2c(-c3cccc(O)c3)nc3sccn23)n1)Nc1cccc(C(F)(F)F)c1", 6.52),
    ("O=C(NCCNc1nccc(-c2c(-c3cccc(O)c3)nc3sccn23)n1)c1ccccc1O", 2.95),
    ("COc1cccc(-c2nc3sccn3c2-c2ccnc(NCCNC(=O)Nc3cccc(C(F)(F)F)c3)n2)c1", 3.77),
]

---

- System: MDA-MB-435
- measurement-protocol: Antiproliferative activity against human MDA-MB-435 cells after 48 hrs by MTT assay
- Format: functional, cell-based
- applied-conditions: MDA-MB-435, 48 h
pIC50: −log10 of the molar value.
Overview of reported pIC50 across a group of compounds:

# compound-string, pIC50
data = [
    ("O=C(NCCNc1nccc(-c2c(-c3cccc(O)c3)nc3sccn23)n1)c1ccccc1O", 6.36),
    ("O=C(NCCNc1nccc(-c2c(-c3cccc(O)c3)nc3sccn23)n1)c1ccccc1", 6.24),
]

---

Overview of reported GI50 across a group of compounds:
- System: CCRF-CEM
- measurement-protocol: Anticancer activity against human CCRF-CEM cells after 48 hrs by SRB assay
- Type: functional
measurement-type: GI50 (µM)

# compound-string, measured-result
records = [
    ("O=C(NCCNc1nccc(-c2c(-c3cccc(O)c3)nc3sccn23)n1)c1ccccc1", 3.38),
    ("O=C(NCCNc1nccc(-c2c(-c3cccc(O)c3)nc3sccn23)n1)c1ccccc1O", 3.43),
    ("COc1cccc(-c2nc3sccn3c2-c2ccnc(NCCNC(=O)Nc3cccc(C(F)(F)F)c3)n2)c1", 8.43),
    ("O=C(NCCNc1nccc(-c2c(-c3cccc(O)c3)nc3sccn23)n1)Nc1cccc(C(F)(F)F)c1", 3.25),
]

---

- Tested on: Malme-3M
- measurement-protocol: Anticancer activity against human MALME-3M cells after 48 hrs by SRB assay
- Format: functional

# compound-string, tgt, units-of-measure, GI50
measured = [
    ("O=C(NCCNc1nccc(-c2c(-c3cccc(O)c3)nc3sccn23)n1)c1ccccc1O", "Malme-3M", "nM", 433),
    ("O=C(NCCNc1nccc(-c2c(-c3cccc(O)c3)nc3sccn23)n1)Nc1cccc(C(F)(F)F)c1", "Malme-3M", "nM", 2090),
    ("COc1cccc(-c2nc3sccn3c2-c2ccnc(NCCNC(=O)Nc3cccc(C(F)(F)F)c3)n2)c1", "Malme-3M", "nM", 3860),
    ("O=C(NCCNc1nccc(-c2c(-c3cccc(O)c3)nc3sccn23)n1)c1ccccc1", "Malme-3M", "nM", 205),
]

---

- Test system: 786-0
- measurement-protocol: Anticancer activity against human 786-0 cells assessed as cell growth at 10^-5 M after 48 hrs by SRB assay
- Type: functional
- applied-conditions: 786-0, 48 h, read-out: Activity
Values of growth at 10 µM strictly less than 70% map to 1, and values of at least 70% map to 0.

# compound-string, cat
records = [
    ("O=C(NCCNc1nccc(-c2c(-c3cccc(O)c3)nc3sccn23)n1)Nc1ccccc1", 0),
    ("O=C(NCCNc1nccc(-c2c(-c3cccc(O)c3)nc3sccn23)n1)c1cc(N2CCOCC2)cc(C(F)(F)F)c1", 0),
    ("O=C(NCCNc1nccc(-c2c(-c3cccc(O)c3)nc3sccn23)n1)c1ccccc1", 1),
    ("O=C(NCCNc1nccc(-c2c(-c3cccc(O)c3)nc3sccn23)n1)c1ccccc1O", 1),
]

---

- Tested on: HCT-116
- measurement-protocol: Anticancer activity against human HCT116 cells after 48 hrs by SRB assay
- Assay type: functional
- applied-conditions: HCT-116, 48 h
measurement-type: GI50

# compound-string, measured-result
data = [
    ("O=C(NCCNc1nccc(-c2c(-c3cccc(O)c3)nc3sccn23)n1)c1ccccc1O", "5.13 µM"),
    ("COc1cccc(-c2nc3sccn3c2-c2ccnc(NCCNC(=O)Nc3cccc(C(F)(F)F)c3)n2)c1", "3.45 µM"),
    ("O=C(NCCNc1nccc(-c2c(-c3cccc(O)c3)nc3sccn23)n1)c1ccccc1", "4.82 µM"),
    ("O=C(NCCNc1nccc(-c2c(-c3cccc(O)c3)nc3sccn23)n1)Nc1cccc(C(F)(F)F)c1", "3.58 µM"),
]

---

- Tested on: SF-539
- measurement-protocol: Anticancer activity against human SF539 cells after 48 hrs by SRB assay
- Type: functional
- applied-conditions: SF-539, 48 h

# compound-string, relation-sign, TGI, µM
records = [
    ("COc1cccc(-c2nc3sccn3c2-c2ccnc(NCCNC(=O)Nc3cccc(C(F)(F)F)c3)n2)c1", "=", 17.1),
    ("O=C(NCCNc1nccc(-c2c(-c3cccc(O)c3)nc3sccn23)n1)c1ccccc1", "=", 36.8),
    ("O=C(NCCNc1nccc(-c2c(-c3cccc(O)c3)nc3sccn23)n1)Nc1cccc(C(F)(F)F)c1", "=", 36.9),
    ("O=C(NCCNc1nccc(-c2c(-c3cccc(O)c3)nc3sccn23)n1)c1ccccc1O", ">", 100),
]

---

- System: MDA-MB-468
- measurement-protocol: Anticancer activity against human MDA-MB-468 cells assessed as cell growth at 10^-5 M after 48 hrs by SRB assay
- Assay type: functional
- applied-conditions: MDA-MB-468, 48 h, read-out: Activity
Overview of reported growth at 10 µM across a group of compounds:

# compound-string, growth at 10 µM
rows = [
    ("COc1cccc(-c2nc3sccn3c2-c2ccnc(NCCNC(=O)Nc3ccccc3)n2)c1", "101%"),
    ("O=C(NCCNc1nccc(-c2c(-c3cccc(O)c3)nc3sccn23)n1)c1cccc(C(F)(F)F)c1", "70.5%"),
    ("O=C(NCCNc1nccc(-c2c(-c3cccc(O)c3)nc3sccn23)n1)Nc1cc(C(F)(F)F)cc(C(F)(F)F)c1", "57.8%"),
    ("O=C(NCCNc1nccc(-c2c(-c3cccc(O)c3)nc3sccn23)n1)c1cc(N2CCOCC2)cc(C(F)(F)F)c1", "94.8%"),
    ("O=C(NCCNc1nccc(-c2c(-c3cccc(O)c3)nc3sccn23)n1)c1ccccc1", "54.7%"),
]

---

Overview of reported CC50 across a group of compounds:
- Tested on: SNB-75
- measurement-protocol: Anticancer activity against human SNB75 cells after 48 hrs by SRB assay
- Format: functional
- applied-conditions: SNB-75, 48 h, read-out: LC50 (the source's name)
measurement-type: CC50

# compound-string, measured-result
measured = [
    ("O=C(NCCNc1nccc(-c2c(-c3cccc(O)c3)nc3sccn23)n1)Nc1cccc(C(F)(F)F)c1", "62.5 µM"),
    ("O=C(NCCNc1nccc(-c2c(-c3cccc(O)c3)nc3sccn23)n1)c1ccccc1", "> 100 µM"),
    ("COc1cccc(-c2nc3sccn3c2-c2ccnc(NCCNC(=O)Nc3cccc(C(F)(F)F)c3)n2)c1", "> 100 µM"),
    ("O=C(NCCNc1nccc(-c2c(-c3cccc(O)c3)nc3sccn23)n1)c1ccccc1O", "> 100 µM"),
]

---

- System: T47D
- measurement-protocol: Anticancer activity against human T47D cells assessed as cell growth at 10^-5 M after 48 hrs by SRB assay
- Assay type: functional
- applied-conditions: read-out: Activity
Overview of reported growth at 10 µM across a group of compounds:

# compound-string, growth at 10 µM, %
measured = [
    ("O=C(NCCNc1nccc(-c2c(-c3cccc(O)c3)nc3sccn23)n1)c1cc(C(F)(F)F)cc(C(F)(F)F)c1", 88.5),
    ("O=C(NCCNc1nccc(-c2c(-c3cccc(O)c3)nc3sccn23)n1)c1ccc(N2CCOCC2)c(C(F)(F)F)c1", 60.1),
    ("COc1cccc(-c2nc3sccn3c2-c2ccnc(NCCNC(=O)c3cccc(C(F)(F)F)c3)n2)c1", 46.7),
    ("O=C(NCCNc1nccc(-c2c(-c3cccc(O)c3)nc3sccn23)n1)Nc1cccc(C(F)(F)F)c1", 63.8),
    ("O=C(NCCNc1nccc(-c2c(-c3cccc(O)c3)nc3sccn23)n1)c1ccccc1", 58.6),
    ("COc1cccc(-c2nc3sccn3c2-c2ccnc(NCCNC(=O)c3ccc(N4CCOCC4)c(C(F)(F)F)c3)n2)c1", 67),
    ("COc1cccc(-c2nc3sccn3c2-c2ccnc(NCCNC(=O)c3cc(C(F)(F)F)cc(C(F)(F)F)c3)n2)c1", 77),
    ("O=C(NCCNc1nccc(-c2c(-c3cccc(O)c3)nc3sccn23)n1)Nc1cc(C(F)(F)F)cc(C(F)(F)F)c1", 72),
]
